tested on: HC-1 (Other Blood Carcinomas); experiment: combination Emax (second highest fraction inhibited in the dose matrix, 72 h); higher = more inhibition; extreme values may be limits of the assay
ASSAY METRIC: combination Emax
Lab note: write the figure by itself, no unit.

Worked examples, 4 molecules total:
| MOLECULE | VAL |
| --- | --- |
| CC1(C)CCC(CN2CCN(c3ccc(C(=O)NS(=O)(=O)c4ccc(NCC5CCOCC5)c([N+](=O)[O-])c4)c(Oc4cnc5[nH]ccc5c4)c3)CC2)=C(c2ccc(Cl)cc2)C1 [Venetoclax] + CCN(CCO)CCCOc1ccc2c(Nc3cc(CC(=O)Nc4cccc(F)c4)[nH]n3)ncnc2c1 [AZD2811] (first compound max 1 µM, 7x7, partner max 1 µM) | 0.712 |
| C[C@@H](c1ccc2nccn2c1)n1nnc2ncc(-c3cnn(C)c3)nc21 [Savolitinib] + CC1(C)CCC(CN2CCN(c3ccc(C(=O)NS(=O)(=O)c4ccc(NCC5CCOCC5)c([N+](=O)[O-])c4)c(Oc4cnc5[nH]ccc5c4)c3)CC2)=C(c2ccc(Cl)cc2)C1 [Venetoclax] (first compound max 1 µM, 7x7, partner max 1 µM) | 0.173 |
| COc1nnc2ccc(N3CCC(c4ccc(OCCN5CCN(C)C(=O)[C@H]5C)cc4)CC3)nn12 [AZD5153] + CC1(C)CCC(CN2CCN(c3ccc(C(=O)NS(=O)(=O)c4ccc(NCC5CCOCC5)c([N+](=O)[O-])c4)c(Oc4cnc5[nH]ccc5c4)c3)CC2)=C(c2ccc(Cl)cc2)C1 [Venetoclax] (first compound max 1 µM, 7x7, partner max 1 µM) | 0.557 |
| CN(CCO)CC[C@H](CSc1ccccc1)Nc1ccc(S(=O)(=O)NC(=O)c2ccc(N3CCC([C@@H](O)c4ccccc4-c4ccc(Cl)cc4)CC3)cc2)cc1S(=O)(=O)C(F)(F)F [AZD4320] + C1CN(CCC1(C(=O)N[C@@H](CCO)C2=CC=C(C=C2)Cl)N)C3=NC=NC4=C3C=CN4 [Capivasertib] (first compound max 1 µM, 7x7, partner max 3 µM) | 0.616 |

Field combination Emax (entry Cc1c2c(nn1C)CSCc1cc(n(C)n1)CSc1cc(c3ccccc3c1)OCCCc1c(C(=O)O)n(C)c3c-2c(Cl)ccc13 [AZD5991] + C[C@@H]1COCCN1C2=NC(=NC(=C2)C3(CC3)[S@](=N)(=O)C)C4=C5C=CNC5=NC=C4 [AZD6738] (first compound max 1 µM, 7x7, partner max 10 µM) ) reads 0.926

Field combination Emax (entry NC1(C(=O)N[C@@H](CCO)c2ccc(Cl)cc2)CCN(c2ncnc3[nH]ccc23)CC1 [Capivasertib] + COc1nnc2ccc(N3CCC(c4ccc(OCCN5CCN(C)C(=O)[C@H]5C)cc4)CC3)nn12 [AZD5153] (first compound max 10 µM, 7x7, partner max 1 µM) ) reads 0.664

###

Examples of compounds with documented combination Emax follow.
test system: NH-12 (Neuroblastoma); experiment: combination Emax (second highest fraction inhibited in the dose matrix, 72 h); higher = more inhibition; extreme values may be limits of the assay
Lab note: write the figure by itself, no unit.

| COMPOUND | combination Emax |
| --- | --- |
| Cn1cnc2c(F)c(Nc3ccc(Br)cc3Cl)c(C(=O)NOCCO)cc21 [Selumetinib] + C=CCn1c(=O)c2cnc(Nc3ccc(N4CCN(C)CC4)cc3)nc2n1-c1cccc(C(C)(C)O)n1 [AZD1775] (first compound max 10 µM, partner max 1 µM) | 0.891 |

Field combination Emax (entry C[C@@H](c1ccc2nccn2c1)n1nnc2ncc(-c3cnn(C)c3)nc21 [Savolitinib] + CN(CC[C@H](CSC1=CC=CC=C1)NC2=C(C=C(C=C2)S(=O)(=O)NC(=O)C3=CC=C(C=C3)N4CCC(CC4)[C@H](C5=CC=CC=C5C6=CC=C(C=C6)Cl)O)S(=O)(=O)C(F)(F)F)CCO [AZD4320] (first compound max 1 µM, 7x7, partner max 1 µM) ) reads 0.824

###

tested on: PF-382 (T-Lymphoblastic Leukemia); assay: Bliss excess, mean over the matrix (fraction); higher = more synergy;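 note: after 72 h of two-drug dosing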
ASSAY METRIC: Bliss excess

| MOLECULE | VAL |
| --- | --- |
| Cc1c2c(nn1C)CSCc1cc(n(C)n1)CSc1cc(c3ccccc3c1)OCCCc1c(C(=O)O)n(C)c3c-2c(Cl)ccc13 [AZD5991] + CCN(CCO)CCCOc1ccc2c(Nc3cc(CC(=O)Nc4cccc(F)c4)[nH]n3)ncnc2c1 [AZD2811] (first compound max 1 µM, 7x7, partner max 1 µM) | 0.0276 |

Kindly consider the entry below.
Field Bliss excess (entry NC1(C(=O)N[C@@H](CCO)c2ccc(Cl)cc2)CCN(c2ncnc3[nH]ccc23)CC1 [Capivasertib] + CC(C)n1c(=O)n(C)c2cnc3cc(F)c(-c4ccc(OCCCN5CCCCC5)nc4)cc3c21 [AZD1390] (first compound max 10 µM, 7x7, partner max 0.3 µM) ) reads -0.0211

###

test system: KINGS-1 (Low Grade Glioma); experiment: combination Emax (second highest fraction inhibited in the dose matrix, 72 h); higher = more inhibition; extreme values may be limits of the assay
ASSAY METRIC: combination Emax

| MOLECULE | combination Emax |
| --- | --- |
| CC1(C)CCC(CN2CCN(c3ccc(C(=O)NS(=O)(=O)c4ccc(NCC5CCOCC5)c([N+](=O)[O-])c4)c(Oc4cnc5[nH]ccc5c4)c3)CC2)=C(c2ccc(Cl)cc2)C1 [Venetoclax] + CS(=O)(=O)CCNCc1ccc(-c2ccc3ncnc(Nc4ccc(OCc5cccc(F)c5)c(Cl)c4)c3c2)o1 [Lapatinib] (first compound max 1 µM, 7x7, partner max 10 µM) | 0.208 |

Field combination Emax (entry Cc1cc2ncnn2cc1Nc1ncc2c(n1)n(C1CCOCC1)c(=O)n2C [AZD7648] + COc1cc([C@@H]2c3cc4c(cc3[C@@H](O[C@@H]3O[C@@H]5CO[C@@H](C)O[C@H]5[C@H](O)[C@H]3O)[C@H]3COC(=O)[C@H]23)OCO4)cc(OC)c1O [Etoposide] (first compound max 10 µM, 7x7, partner max 10 µM) ) reads 0.516

Field combination Emax (entry NC1(C(=O)N[C@@H](CCO)c2ccc(Cl)cc2)CCN(c2ncnc3[nH]ccc23)CC1 [Capivasertib] + CC(C)n1c(=O)n(C)c2cnc3cc(F)c(-c4ccc(OCCCN5CCCCC5)nc4)cc3c21 [AZD1390] (first compound max 10 µM, 7x7, partner max 0.3 µM) ) reads 0.374

###

system: KP-2 (Pancreatic Carcinoma); experiment: combination Emax (second highest fraction inhibited in the dose matrix, 72 h); higher = more inhibition; extreme values may be limits of the assay
Returns yes if the recorded combination Emax is greater than or equal to 0.7, and no otherwise.

| COMPOUND | SYSTEM | CATEGORY LABEL |
| --- | --- | --- |
| CCN(CCO)CCCOc1ccc2c(Nc3cc(CC(=O)Nc4cccc(F)c4)[nH]n3)ncnc2c1 [AZD2811] + C=CCn1c(=O)c2cnc(Nc3ccc(N4CCN(C)CC4)cc3)nc2n1-c1cccc(C(C)(C)O)n1 [AZD1775] (first compound max 1 µM, partner max 1 µM) | KP-2 (Pancreatic Carcinoma) | no |
| C=CCn1c(=O)c2cnc(Nc3ccc(N4CCN(C)CC4)cc3)nc2n1-c1cccc(C(C)(C)O)n1 [AZD1775] + O=C(c1cc(Cc2n[nH]c(=O)c3ccccc23)ccc1F)N1CCN(C(=O)C2CC2)CC1 [Olaparib] (first compound max 1 µM, partner max 10 µM) | KP-2 (Pancreatic Carcinoma) | no |
| COc1cc2c(cc1OCCCCCOc1cc3c(cc1OC)C(=O)N1C=C(C)C[C@H]1C=N3)N=C[C@@H]1CC(C)=CN1C2=O [SG3199] + O=C(c1cc(Cc2n[nH]c(=O)c3ccccc23)ccc1F)N1CCN(C(=O)C2CC2)CC1 [Olaparib] (first compound max 0.001 µM, 7x7, partner max 10 µM) | KP-2 (Pancreatic Carcinoma) | no |
| NC1(C(=O)N[C@@H](CCO)c2ccc(Cl)cc2)CCN(c2ncnc3[nH]ccc23)CC1 [Capivasertib] + CC(=O)c1c(C)c2cnc(Nc3ccc(N4CCNCC4)cn3)nc2n(C2CCCC2)c1=O [Palbociclib] (first compound max 10 µM, 7x7, partner max 10 µM) | KP-2 (Pancreatic Carcinoma) | no |

Tell me whether combination Emax is at least 0.7 here: C[C@@H]1COCCN1c1cc(C2([S@](C)(=N)=O)CC2)nc(-c2ccnc3[nH]ccc23)n1 [AZD6738] + O=C(c1cc(Cc2n[nH]c(=O)c3ccccc23)ccc1F)N1CCN(C(=O)C2CC2)CC1 [Olaparib] (first compound max 10 µM, 7x7, partner max 10 µM) no

Tell me whether combination Emax is at least 0.7 here: NC1(C(=O)N[C@@H](CCO)c2ccc(Cl)cc2)CCN(c2ncnc3[nH]ccc23)CC1 [Capivasertib] + COc1nnc2ccc(N3CCC(c4ccc(OCCN5CCN(C)C(=O)[C@H]5C)cc4)CC3)nn12 [AZD5153] (first compound max 10 µM, 7x7, partner max 1 µM) no

Tell me whether combination Emax is at least 0.7 here: COc1cccc(OCCCN)c1-c1cc(Nc2cnc(C#N)cn2)n[nH]1 [Prexasertib] + CN(C)CCCOc1ccc(-c2ccc3ncc4c(c3c2)n(C2CCOCC2)c(=O)n4C)cn1 [AZD0156] (first compound max 1 µM, 7x7, partner max 1 µM) no

Tell me whether combination Emax is at least 0.7 here: CN(CCO)CC[C@H](CSc1ccccc1)Nc1ccc(S(=O)(=O)NC(=O)c2ccc(N3CCC([C@@H](O)c4ccccc4-c4ccc(Cl)cc4)CC3)cc2)cc1S(=O)(=O)C(F)(F)F [AZD4320] + C=CCn1c(=O)c2cnc(Nc3ccc(N4CCN(C)CC4)cc3)nc2n1-c1cccc(C(C)(C)O)n1 [AZD1775] (first compound max 1 µM, partner max 1 µM) yes

Tell me whether combination Emax is at least 0.7 here: COc1cccc(OCCCN)c1-c1cc(Nc2cnc(C#N)cn2)n[nH]1 [Prexasertib] + CCc1c2c(nc3ccc(O)cc13)-c1cc3c(c(=O)n1C2)COC(=O)[C@]3(O)CC [SN-38] (first compound max 1 µM, 7x7, partner max 0.3 µM) yes
